- System: Saccharomyces cerevisiae
- METHOD: protein stability index of tFT-peptide fusion (C-terminal peptide) (PSI (0-1 scale)); higher = more stable (slower turnover)
- TEST CONTEXT: genetic background: doa10 deletion; temperature: 30 C
Label rule, in plain words: protein stability index of 0.2 and up is label 1, under 0.2 is label 0.

1) LDFPPLRLILRL | label 1
2) CRRLCGWLFVCV | label 1
3) VMLIRVSRGIKC | label 1
4) VWLFCLSRLYLL | label 0

State whether the measured protein stability index reaches 0.2, counting equality as reaching it, for RILSLQFILCKR
label 1

State whether the measured protein stability index reaches 0.2, counting equality as reaching it, for FFFFLVPVHCVI
label 1

State whether the measured protein stability index reaches 0.2, counting equality as reaching it, for RARLRFASLRAF
label 0

State whether the measured protein stability index reaches 0.2, counting equality as reaching it, for RWCLWGTRVWVS
label 0

----------
- Test system: Saccharomyces cerevisiae
- METHOD: protein stability index of tFT-peptide fusion in wild type (PSI (0-1 scale)); higher = more stable (slower turnover)
- TEST CONTEXT: genetic background: wild type
// map protein stability index to label using low class = under 0.2, middle class = from 0.2 up to 0.3, high class = 0.3 and over

Some entries whose results are on file:
1) GLYMCRVGCWFR | middle class
2) GVTRLDAIYFRI | middle class

Record ARWRHGLWRGAS — which class?
high class

Record LVVYVSCVACIN — which class?
low class

Record VRGAVGPWRLVG — which class?
low class

Record RVWRLDAIYFRI — which class?
middle class

Record RSLRVLLPLSFR — which class?
high class

Record FSMRWTFRYWFN — which class?
high class

Record RSLAASFWRVVG — which class?
low class

Record ARWRVGLQRGAS — which class?
high class

Record RVTRLDAIYFDI — which class?
high class

Record LKILRQKWNHQN — which class?
low class

Record FSMRWTFRYWGN — which class?
low class

Record VRGAVGGPRLVG — which class?
high class

Record FSTRWTFRYWVN — which class?
low class

----------
- System: Saccharomyces cerevisiae
- METHOD: protein stability index of tFT-peptide fusion in deletion strain of DOA10 (PSI (0-1 scale)); higher = more stable (slower turnover)
Reported protein stability index by item:
Simply state the number, no unit and no words.

Below: 5 sequences and their reported protein stability index.
1. RSLRVLLILYFR | 0.38
2. ASTLPMCPLLLR | 0.668
3. GLVSLPILLFFR | 0.608
4. RVWRLDAIYFRI | 0.543
5. RVTRLDAIRFRI | 0.652

Then this sequence:
Give the measured protein stability index of RVTRLDYIYFRI .
0.538

----------
- System: Saccharomyces cerevisiae
- METHOD: protein stability index of tFT-peptide fusion (C-terminal peptide) (PSI (0-1 scale)); higher = more stable (slower turnover)
- TEST CONTEXT: genetic background: cdc53-1; temperature: 37 C
READOUT: protein stability index
Simply state the number, no unit and no words.

Below: 8 sequences and their reported protein stability index.
1) ASPLRLFIPFLF | 0.76
2) RTSRPVRLFRIH | 0.838
3) LFRNIFLFVFLI | 0.229
4) AITLPMCPLLLR | 0.047
5) LEPFTGYTVIVM | 0.185
6) LFFFFLPHLILL | 0.321
7) FRRSFPFPLFLR | 0.0555
8) VACLRLTVYVMG | 0.0789

Then this sequence:
Give the measured protein stability index of LLISPFLFLLVC .
0.0371

----------
- Test system: Saccharomyces cerevisiae
- METHOD: protein stability index of tFT-peptide fusion (C-terminal peptide) (PSI (0-1 scale)); higher = more stable (slower turnover)
- TEST CONTEXT: genetic background: das1 deletion; temperature: 30 C
Reported protein stability index by item:
Simply state the number, no unit and no words.

1. TSNDLPAECVIS [EGH1 C-terminal 12 aa] | 0.72
2. TSNNIFGSDQKY [MNN14 C-terminal 12 aa] | 0.694
3. KRTKTKITSNNG [YBR190W C-terminal 12 aa] | 0.711
4. DLAYQYVRALEL [SRB2 C-terminal 12 aa] | 0.683

Return protein stability index measured with Saccharomyces cerevisiae given this sequence: GKEHRFGLHIRS [DPH6 C-terminal 12 aa]
0.689

Return protein stability index measured with Saccharomyces cerevisiae given this sequence: GEDEENTVDSQY [YOL131W C-terminal 12 aa]
0.688

Return protein stability index measured with Saccharomyces cerevisiae given this sequence: CLRKSPPFVHNT [YMR084W C-terminal 12 aa]
0.694

Return protein stability index measured with Saccharomyces cerevisiae given this sequence: LFYNIRCLGKQF [YAR030C C-terminal 12 aa]
0.707

Return protein stability index measured with Saccharomyces cerevisiae given this sequence: GKQKQLLFHIGV [HEL2 C-terminal 12 aa]
0.686

Return protein stability index measured with Saccharomyces cerevisiae given this sequence: EENENDCDSEIQ [RTS1 C-terminal 12 aa]
0.71

Return protein stability index measured with Saccharomyces cerevisiae given this sequence: SVSDPVKSEDSS [NCB2 C-terminal 12 aa]
0.68

Return protein stability index measured with Saccharomyces cerevisiae given this sequence: ANKKARHFNNSA [VAM7 C-terminal 12 aa]
0.687

Return protein stability index measured with Saccharomyces cerevisiae given this sequence: GAGWSGFKKVFK [GYL1 C-terminal 12 aa]
0.692

Return protein stability index measured with Saccharomyces cerevisiae given this sequence: KNGYGNSNASWW [DBP1 C-terminal 12 aa]
0.717

Return protein stability index measured with Saccharomyces cerevisiae given this sequence: LITSHCCYWNKR [YBL039C-A C-terminal 12 aa]
0.693

----------
Reported protein stability index by item:
- Tested on: Saccharomyces cerevisiae
- METHOD: protein stability index of tFT-peptide fusion (C-terminal peptide) (PSI (0-1 scale)); higher = more stable (slower turnover)
- TEST CONTEXT: genetic background: wild type; temperature: 37 C

Below: 2 sequences and their reported protein stability index.
1. LFDVLFVFSFIF | 0.503
2. SVGCCLLCFFVL | 0.503

Then this sequence:
Give the measured protein stability index of FVSAFVCLLCLV .
0.488

----------
- Tested on: Saccharomyces cerevisiae
- METHOD: protein stability index of tFT-peptide fusion (C-terminal peptide) (PSI (0-1 scale)); higher = more stable (slower turnover)
- TEST CONTEXT: genetic background: wild type; temperature: 30 C
Label rule, in plain words: protein stability index of 0.7 and up is fulfilled, under 0.7 is not fulfilled.

1. CCSRYLSNLCPI | not fulfilled
2. LPNLGWTNSSIE | not fulfilled
3. EWQAGSDRRFYW | not fulfilled
4. RKSKYKGTQRIN | not fulfilled

API: the following record is the query input.
State whether the measured protein stability index reaches 0.7, counting equality as reaching it, for GGGGPGLEARSL
not fulfilled

----------
- Tested on: Saccharomyces cerevisiae
- METHOD: protein stability index of tFT-peptide fusion (C-terminal peptide) (PSI (0-1 scale)); higher = more stable (slower turnover)
- TEST CONTEXT: genetic background: wild type; temperature: 30 C
READOUT: protein stability index
Simply state the number, no unit and no words.

1) LLDIYFILLVWF | 0.258
2) VGGREVSRAGGG | 0.481
3) WCCCVSGFVWWM | 0.465
4) LAKPTVRKIICV | 0.296
5) WGFSVRFVLSVF | 0.0463
6) ERFRLYFRPGIF | 0.332
7) LLCRVSRTRILC | 0.128
8) LPPHSASLSSSF | 0.675
9) LRSVVFFCRTLL | 0.362
10) DISWVFVLLIFF | 0.279

Give the measured protein stability index of TVLGRDFALSVC .
0.346

Give the measured protein stability index of LLLLGVSLFLVR .
0.255

Give the measured protein stability index of LAEHIFLVLDHG .
0.432

----------
Reported protein stability index by item:
- System: Saccharomyces cerevisiae
- METHOD: protein stability index of tFT-peptide fusion (C-terminal peptide) (PSI (0-1 scale)); higher = more stable (slower turnover)
- TEST CONTEXT: genetic background: das1 deletion; temperature: 30 C
Simply state the number, no unit and no words.

Below: 6 sequences and their reported protein stability index.
1. DRKRRKLLWYQA [MRPL20 C-terminal 12 aa] | 0.718
2. KTITIGNLPNSI [UGA2 C-terminal 12 aa] | 0.722
3. GEDVLEGGCLLI [YIR023C-A C-terminal 12 aa] | 0.708
4. FDDSSSVSSKSD [GPC1 C-terminal 12 aa] | 0.717
5. KNNEVLLHKIKI [FAR8 C-terminal 12 aa] | 0.715
6. VKQLEVSSGIKQ [HEM1 C-terminal 12 aa] | 0.693

Return protein stability index measured with Saccharomyces cerevisiae given this sequence: QTSAKISIRLLY [SER3 C-terminal 12 aa]
0.661

Return protein stability index measured with Saccharomyces cerevisiae given this sequence: EIRNMVINSTKD [BFA1 C-terminal 12 aa]
0.713

Return protein stability index measured with Saccharomyces cerevisiae given this sequence: GGFSTEFNSCDT [MLF3 C-terminal 12 aa]
0.719
